TARGET: Nav1.7 (or SCN9A) channel; HEK cells stably transfected with hSCN9A (Homo sapiens, UniProt Q15858)
Construct: expressed in transfected cells
Sequence (Q15858 whole entry): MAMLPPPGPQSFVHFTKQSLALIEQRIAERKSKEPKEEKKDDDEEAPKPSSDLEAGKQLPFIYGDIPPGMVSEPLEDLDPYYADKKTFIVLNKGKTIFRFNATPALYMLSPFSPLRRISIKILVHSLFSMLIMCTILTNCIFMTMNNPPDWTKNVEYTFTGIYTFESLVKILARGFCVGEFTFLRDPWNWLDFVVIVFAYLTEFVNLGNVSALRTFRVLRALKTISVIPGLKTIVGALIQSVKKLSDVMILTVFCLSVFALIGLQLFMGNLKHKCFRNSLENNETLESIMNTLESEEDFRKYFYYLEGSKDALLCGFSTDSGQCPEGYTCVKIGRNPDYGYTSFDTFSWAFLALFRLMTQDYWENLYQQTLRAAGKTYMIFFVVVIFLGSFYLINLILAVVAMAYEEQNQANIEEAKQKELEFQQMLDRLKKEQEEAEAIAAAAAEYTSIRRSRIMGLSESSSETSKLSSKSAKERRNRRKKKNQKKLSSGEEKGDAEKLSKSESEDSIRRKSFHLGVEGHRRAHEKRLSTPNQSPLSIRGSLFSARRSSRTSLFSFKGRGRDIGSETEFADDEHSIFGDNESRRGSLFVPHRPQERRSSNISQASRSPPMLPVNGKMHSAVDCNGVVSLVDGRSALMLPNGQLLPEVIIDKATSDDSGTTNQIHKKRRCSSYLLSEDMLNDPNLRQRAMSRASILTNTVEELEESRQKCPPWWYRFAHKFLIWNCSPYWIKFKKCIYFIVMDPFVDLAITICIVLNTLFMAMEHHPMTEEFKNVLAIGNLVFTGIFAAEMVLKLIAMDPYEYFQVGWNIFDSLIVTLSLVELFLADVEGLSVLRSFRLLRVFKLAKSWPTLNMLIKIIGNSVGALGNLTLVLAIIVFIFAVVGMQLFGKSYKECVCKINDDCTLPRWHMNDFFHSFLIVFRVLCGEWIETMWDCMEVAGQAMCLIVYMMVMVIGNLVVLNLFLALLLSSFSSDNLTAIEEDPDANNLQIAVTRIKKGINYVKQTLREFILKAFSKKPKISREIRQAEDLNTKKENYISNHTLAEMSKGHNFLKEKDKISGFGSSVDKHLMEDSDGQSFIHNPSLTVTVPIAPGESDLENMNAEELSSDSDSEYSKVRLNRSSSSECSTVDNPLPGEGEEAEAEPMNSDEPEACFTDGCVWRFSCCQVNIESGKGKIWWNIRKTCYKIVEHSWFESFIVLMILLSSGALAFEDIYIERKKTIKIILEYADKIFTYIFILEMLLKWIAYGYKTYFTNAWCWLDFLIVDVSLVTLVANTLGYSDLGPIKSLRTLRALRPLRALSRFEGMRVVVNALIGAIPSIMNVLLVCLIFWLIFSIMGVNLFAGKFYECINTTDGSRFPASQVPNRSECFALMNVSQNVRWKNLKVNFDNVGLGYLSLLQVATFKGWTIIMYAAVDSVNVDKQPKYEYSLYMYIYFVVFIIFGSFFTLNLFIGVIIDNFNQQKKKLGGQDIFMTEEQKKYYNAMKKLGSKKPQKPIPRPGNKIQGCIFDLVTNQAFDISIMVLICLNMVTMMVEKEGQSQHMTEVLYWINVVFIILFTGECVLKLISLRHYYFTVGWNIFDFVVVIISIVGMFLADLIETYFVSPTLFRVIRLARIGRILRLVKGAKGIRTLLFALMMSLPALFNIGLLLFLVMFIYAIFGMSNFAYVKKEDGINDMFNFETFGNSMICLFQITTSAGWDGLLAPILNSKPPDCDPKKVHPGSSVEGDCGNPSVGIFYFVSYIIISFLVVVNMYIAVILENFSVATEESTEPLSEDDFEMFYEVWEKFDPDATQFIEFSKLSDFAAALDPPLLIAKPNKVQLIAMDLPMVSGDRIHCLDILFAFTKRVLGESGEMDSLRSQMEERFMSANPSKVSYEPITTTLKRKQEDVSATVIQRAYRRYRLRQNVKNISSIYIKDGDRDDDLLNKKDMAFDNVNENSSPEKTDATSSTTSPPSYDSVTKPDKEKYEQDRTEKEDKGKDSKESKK
EXPERIMENT_DESCRIPTION: Nav1.7 block, PatchXpress 7000 automated whole-cell voltage clamp, estimated IC50 (EIC50)
Assay type: cell-based
ASSAY_CONDITIONS: PatchXpress platform; hSCN9A HEK cells held at V1/2 of inactivation; estimated IC50
As shown below, each of these compounds has a reported log10 of IC50 value.
Heads up: the numbers are on a log10 scale; they represent IC50 in nM.

**Query** Bench note: what log10 of IC50 did N#Cc1cc(S(=O)(=O)Nc2ncns2)ccc1Oc1ccccc1-c1ccc(F)cc1 [Example 49] show?
**Result** 2.20

**Query** Bench note: what log10 of IC50 did CCn1nc(C(F)(F)F)cc1-c1ccc(Oc2ccc(S(=O)(=O)Nc3nccs3)cc2C#N)cc1 [Example 280] show?
**Result** 1.95

**Query** Bench note: what log10 of IC50 did Cc1cccc(-c2ccccc2F)c1Oc1ccc(S(=O)(=O)Nc2ncns2)cc1C#N [Example 43] show?
**Result** 4.34

**Query** Bench note: what log10 of IC50 did Cc1snnc1NS(=O)(=O)c1ccc(Oc2ccccc2-c2ccccc2)c(C#N)c1 [Example 112] show?
**Result** 4.53

**Query** Bench note: what log10 of IC50 did CCc1ccc(Oc2ccc(S(=O)(=O)Nc3ncns3)cc2C#N)c(-c2ccccc2)n1 [Example 19] show?
**Result** 2.86

**Query** Bench note: what log10 of IC50 did Cn1nccc1-c1c(F)cccc1Oc1ccc(S(=O)(=O)Nc2ncns2)cc1C#N [Example 86] show?
**Result** 3.27

**Query** Bench note: what log10 of IC50 did NC(=O)c1cc(S(=O)(=O)Nc2nccs2)ccc1Oc1ccccc1-c1ccccc1 [Example 250] show?
**Result** 3.27

**Query** Bench note: what log10 of IC50 did O=S(=O)(Nc1ncns1)c1ccc(Oc2ccccc2-c2ccccc2)c(C(F)(F)F)c1 [Example 205] show?
**Result** 2.52

**Query** Bench note: what log10 of IC50 did N#Cc1cc(S(=O)(=O)Nc2ncns2)ccc1Oc1ccccc1-c1ccc(F)cc1F [Example 56] show?
**Result** 2.58

**Query** Bench note: what log10 of IC50 did Cc1cc(S(=O)(=O)Nc2ncns2)ccc1Oc1ccn(Cc2ccc(Cl)cc2)n1 [Example 257] show?
**Result** 3.34

**Query** Bench note: what log10 of IC50 did Cc1cn(Cc2ccccc2)nc1Oc1ccc(S(=O)(=O)Nc2ncns2)cc1C#N [Example 66] show?
**Result** 3.42

**Query** Bench note: what log10 of IC50 did O=S(=O)(Nc1ncc(Cl)s1)c1ccc(Oc2ccccc2-c2ccccc2)c(F)c1 [Example 147] show?
**Result** 3.18

**Query** Bench note: what log10 of IC50 did N#Cc1cc(S(=O)(=O)Nc2nccs2)ccc1Oc1ccc(F)cc1-c1cccc(CO)c1 [Example 161] show?
**Result** 1.85

###

TARGET: Nav1.7 (or SCN9A) channel; HEK cells stably transfected with hSCN9A (Homo sapiens, UniProt Q15858)
Construct: expressed in transfected cells
EXPERIMENT_DESCRIPTION: Nav1.7 block, PatchXpress 7000 automated whole-cell voltage clamp, estimated IC50 (EIC50)
Assay type: cell-based
ASSAY_CONDITIONS: estimated IC50; hSCN9A HEK cells, PatchXpress platform; Examples 283-814
As shown below, each of these molecules has a reported IC50 value.
Provide the measurement as a number trailed by its unit.

Use the examples below as a reference point.
CCn1nc(-c2ccc(Oc3ccc(S(=O)(=O)Nc4ncc(F)s4)cc3C#N)c(F)c2)cc1C(F)(F)F [Example 540]    4 µM
Cn1nccc1-c1cc(F)ccc1Oc1cc(F)c(S(=O)(=O)Nc2cscn2)cc1Cl [Example 657]    0.083 µM
N#Cc1cc(S(=O)(=O)Nc2ncc(Cl)s2)ccc1Oc1ccc(Cl)cc1C1COC1 [Example 588]    0.12 µM
Cn1nccc1-c1ccc(I)cc1Oc1ccc(S(=O)(=O)Nc2ncns2)cc1C#N [Example 507]    0.011 µM

**Query** Bench note: what IC50 did Cn1nccc1-c1cc(Br)ccc1Oc1ccc(S(=O)(=O)Nc2ncns2)cc1C#N [Example 501] show?
**Result** 0.04 µM

**Query** Bench note: what IC50 did N#Cc1cc(S(=O)(=O)Nc2nccs2)ccc1Oc1cccc(-c2ccn[nH]2)c1 [Example 444] show?
**Result** 9.9 µM

**Query** Bench note: what IC50 did Nc1cccc(-c2cc(Cl)ccc2Oc2cc(F)c(S(=O)(=O)Nc3ncns3)cc2Cl)n1 [Example 403] show?
**Result** 0.0045 µM

**Query** Bench note: what IC50 did Cn1nccc1-c1cc(C#N)ccc1Oc1ccc(S(=O)(=O)Nc2nccs2)cc1F [Example 721] show?
**Result** 0.16 µM

###

TARGET: Nav1.7 (or SCN9A) channel; HEK cells stably transfected with hSCN9A (Homo sapiens, UniProt Q15858)
Construct: expressed in transfected cells
EXPERIMENT_DESCRIPTION: Nav1.7 block, PatchXpress 7000 automated whole-cell voltage clamp, estimated IC50 (EIC50)
Type: cell-based
ASSAY_CONDITIONS: estimated IC50; hSCN9A HEK cells, PatchXpress platform; Examples 283-814
As shown below, each of these molecules has a reported IC50 value.
Numbers only; they are read as nM.

**Query** Bench note: what IC50 did `Cn1nccc1-c1nc(C(F)(F)F)ccc1Oc1cc(F)c(S(=O)(=O)Nc2cscn2)cc1Cl` show?
**Result** 270

**Query** Bench note: what IC50 did `O=S(=O)(Nc1ncns1)c1cc(F)c(Oc2ccc(C(F)(F)F)cc2-c2ccnnc2)cc1F` show?
**Result** 6.2

###

TARGET: Nav1.7 (or SCN9A) channel; HEK cells stably transfected with hSCN9A (Homo sapiens, UniProt Q15858)
Construct: expressed in transfected cells
EXPERIMENT_DESCRIPTION: Nav1.7 block, PatchXpress 7000 automated whole-cell voltage clamp, estimated IC50 (EIC50)
Format: cell-based
ASSAY_CONDITIONS: estimated IC50; hSCN9A HEK cells, PatchXpress platform; Examples 283-814
As shown below, each of these compounds has a reported IC50 value.
Numbers only; they are read as nM.

Use the examples below as a reference point.
N#Cc1cc(S(=O)(=O)Nc2nccs2)ccc1Oc1ccc(-n2ccc(C(F)(F)F)n2)cc1C(F)(F)F    1500
Cn1nccc1-c1cc(Cl)ccc1Oc1cc(F)c(S(=O)(=O)Nc2cscn2)cc1F    130
CCn1nc(C(F)(F)F)cc1-c1ccc(Oc2ccc(S(=O)(=O)Nc3cscn3)cc2C#N)cc1    2700
O=S(=O)(Nc1ncns1)c1cc(Cl)c(Oc2cc(F)ccc2-c2ccn[nH]2)cc1F    6.9
O=S(=O)(Nc1nccs1)c1cc(F)c(Oc2ccc(Cl)cc2-c2cn[nH]c2)cc1F    31

**Query** Bench note: what IC50 did `CN1CCC(n2nccc2-c2cc(Cl)ccc2Oc2ccc(S(=O)(=O)Nc3ncns3)cc2C#N)CC1` show?
**Result** 20

**Query** Bench note: what IC50 did `Cn1nccc1-c1cc(Cl)ccc1Oc1ncc(S(=O)(=O)Nc2nccs2)cc1Cl` show?
**Result** 250

###

TARGET: Nav1.7 (or SCN9A) channel; HEK cells stably transfected with hSCN9A (Homo sapiens)
Construct: expressed in transfected cells
EXPERIMENT_DESCRIPTION: Nav1.7 block, PatchXpress 7000 automated whole-cell voltage clamp, estimated IC50 (EIC50)
Type: cell-based
ASSAY_CONDITIONS: estimated IC50; hSCN9A HEK cells, PatchXpress platform; Examples 283-814
ASSAY_READOUT: IC50 (nM)
Numbers only; they are read as nM.

O=S(=O)(Nc1ncns1)c1ccc(Oc2ccc(Cl)cc2-c2cn[nH]c2)c(F)c1    17
N#Cc1cc(S(=O)(=O)Nc2ncc(Cl)s2)ccc1Oc1ccc(Cl)cc1-c1ccnn1C1CNC1    0.7
N#Cc1cc(S(=O)(=O)Nc2ncn[nH]2)ccc1Oc1ccccc1-c1ccccc1    11000
N#Cc1cc(S(=O)(=O)Nc2ncns2)ccc1Oc1ccc(C(F)(F)F)cc1-c1ccn[nH]1    7.8

**Query** Bench note: what IC50 did `Cn1nccc1-c1cc(Cl)ccc1Oc1ccc(S(=O)(=O)Nc2ccc(F)cn2)cc1F` show?
**Result** 1100

**Query** Bench note: what IC50 did `O=S(=O)(Nc1nccs1)c1ccc(Oc2ccc(F)cc2-c2cn[nH]c2)c(F)c1` show?
**Result** 330

**Query** Bench note: what IC50 did `Cn1nc(C(F)(F)F)cc1-c1cc(Cl)ccc1Oc1ccc(S(=O)(=O)Nc2cscn2)cc1C#N` show?
**Result** 1800
